pIC50: −log10 of the molar value.
Acetylcholinesterase (Homo sapiens, UniProt P22303) data, read-out pIC50
Sequence (P22303 whole entry): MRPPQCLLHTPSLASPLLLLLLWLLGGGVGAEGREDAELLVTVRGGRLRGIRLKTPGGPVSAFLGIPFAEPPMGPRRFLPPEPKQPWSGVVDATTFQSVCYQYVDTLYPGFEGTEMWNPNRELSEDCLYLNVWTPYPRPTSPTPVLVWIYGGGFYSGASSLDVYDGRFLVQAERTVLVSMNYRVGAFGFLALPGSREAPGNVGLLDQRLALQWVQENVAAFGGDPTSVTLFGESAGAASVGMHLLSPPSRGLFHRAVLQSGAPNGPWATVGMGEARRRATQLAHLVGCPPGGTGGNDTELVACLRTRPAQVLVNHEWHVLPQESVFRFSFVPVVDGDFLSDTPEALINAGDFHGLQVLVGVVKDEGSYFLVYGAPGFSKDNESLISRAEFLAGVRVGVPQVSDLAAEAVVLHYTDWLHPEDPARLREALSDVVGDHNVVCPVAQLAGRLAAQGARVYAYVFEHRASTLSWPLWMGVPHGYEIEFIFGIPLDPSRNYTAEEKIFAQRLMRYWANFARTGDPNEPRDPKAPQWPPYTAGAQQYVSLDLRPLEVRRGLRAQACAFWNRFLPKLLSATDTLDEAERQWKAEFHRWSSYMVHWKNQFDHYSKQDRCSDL

smiles-string	comparison-sign	pIC50
COc1ccc([N+]2=Cc3c(cccc3OC)CC2)cc1	=	5.98
COc1cccc2c1C=[N+](c1ccc(Cl)cc1Cl)CC2	=	5.98
COc1cccc2c1C=[N+](c1c(F)cccc1F)CC2	=	5.89
COc1cccc2cc[n+](-c3cccc(C)c3)cc12	=	5.66
COc1cccc2c1C=[N+](c1ccccc1F)CC2	=	5.53
COc1cccc2c1C=[N+](c1ccc(F)cc1)CC2	=	5.70
COc1cccc2cc[n+](-c3ccc(Cl)cc3)cc12	=	6.77
COc1cccc2cc[n+](-c3ccc(I)cc3)cc12	=	6.14
COc1cccc2c1C=[N+](c1ccc(C)cc1)CC2	=	6.28
COc1cccc2c1C=[N+](c1ccc(Br)cc1)CC2	=	6.55
COc1cccc2cc[n+](-c3ccccc3)cc12	=	5.85
COc1cccc2c1C=[N+](c1cccc(I)c1)CC2	<	5.00
COc1cccc([N+]2=Cc3c(cccc3OC)CC2)c1	=	5.28
COc1cccc2c1C=[N+](c1ccc(Cl)cc1)CC2	=	6.49
COc1cccc2cc[n+](-c3ccccc3I)cc12	=	5.69
COc1ccc2c(c[n+](C)c3c4cc5c(cc4ccc23)OCO5)c1OC	=	5.84
COc1cccc2cc[n+](-c3ccc(Br)cc3Br)cc12	=	6.24
COc1cccc2cc[n+](-c3ccccc3Br)cc12	=	5.28
Brc1ccc([N+]2=Cc3ccccc3CC2)cc1	=	4.98
COc1ccccc1[N+]1=Cc2c(cccc2OC)CC1	<	5.00
COc1cccc2c1C=[N+](c1ccc(Br)cc1F)CC2	=	5.89
COc1cccc2cc[n+](-c3ccc(Cl)cc3Cl)cc12	=	5.47
COc1cccc2c1C=[N+](c1ccccc1C)CC2	=	5.51
COc1cccc2c1C=[N+](c1ccccc1I)CC2	=	5.75
COc1cccc2cc[n+](-c3ccc(Br)cc3)cc12	=	6.72
COc1cccc2cc[n+](-c3cccc(F)c3)cc12	=	5.04

From: ChEMBL document CHEMBL4765338
